Molecular target: hCA II (Homo sapiens, UniProt P00918)
Construct: made in house
Test: stopped flow CO2 hydrase assay, hCA II
Format: biochemical
Settings: mean from 3 assays, errors ±5–10%; 6 h preincubation
I'd be grateful if you could share measured Ki for these entries.

Example cases with answers are listed next.
compound: O=C(COc1ccc2ccc(=O)oc2c1)NNC(=S)Nc1cccc(I)c1 [Compound 19b]
Ki: > 10000 nM

compound: O=C(COc1ccc2ccc(=O)oc2c1)NNC(=S)Nc1ccc(C(F)(F)F)cc1 [Compound 20b]
Ki: > 10000 nM

compound: N#Cc1ccc(NC(=S)NNC(=O)COc2ccc3ccc(=O)oc3c2)cc1 [Compound 23b]
Ki: > 10000 nM

Provide each entry's Ki from the list below.
1. O=C(COc1ccc2ccc(=O)oc2c1)NNC(=S)Nc1ccccc1 [Compound 14b]
2. O=C(COc1ccc2ccc(=O)oc2c1)NNC(=S)Nc1ccc(F)cc1 [Compound 17b]
3. O=C(COc1ccc2ccc(=O)oc2c1)NNC(=S)Nc1ccc(I)cc1 [Compound 18b]
4. O=C(COc1ccc2oc(=O)ccc2c1)NNC(=S)Nc1cccc([N+](=O)[O-])c1 [Compound 21a]
5. O=C(COc1ccc2oc(=O)ccc2c1)NNC(=S)Nc1cccc(I)c1 [Compound 19a]

OUT:
> 10000 nM
> 10000 nM
> 10000 nM
> 10000 nM
> 10000 nM
